Target: KRAS WT (Homo sapiens (Human), UniProt P01116+P62937)
Sequence (P01116 other isoform, or with tags, fused parts or gaps): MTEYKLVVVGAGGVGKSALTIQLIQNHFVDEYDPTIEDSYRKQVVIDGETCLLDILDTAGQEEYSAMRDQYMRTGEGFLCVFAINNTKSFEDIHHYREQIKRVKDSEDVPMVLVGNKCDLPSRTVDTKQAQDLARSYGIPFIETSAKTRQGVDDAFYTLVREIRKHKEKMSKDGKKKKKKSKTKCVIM
Sequence (P62937 whole entry): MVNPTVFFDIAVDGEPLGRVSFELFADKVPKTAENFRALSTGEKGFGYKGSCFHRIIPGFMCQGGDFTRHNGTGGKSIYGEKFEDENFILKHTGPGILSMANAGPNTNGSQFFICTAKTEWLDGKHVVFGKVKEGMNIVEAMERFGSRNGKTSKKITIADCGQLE
Experiment: Ras-Raf disruption/FRET/MOA assay, KRAS WT
Format: biochemical
Details: read-out: KRAS WT FRET IC50
pIC50: −log10 of the molar value.
Each entry below carries its reported pIC50.

Fill in: pIC50 of "CCn1c(-c2cnccc2COC)c2c3cc(ccc31)-c1cc(O)cc(c1)C[C@H](NC(=O)[C@@H](CN(C)C(=O)[C@@H]1CN1)C(C)C)C(=O)N1CCC[C@H](N1)C(=O)OCC(C)(C)C2" is ___
< 5.00

---

Molecular target: KRAS WT (Homo sapiens (Human), UniProt P01116+P62937)
Assay: Ras-Raf disruption/FRET/MOA assay (BRAF RBD, Cyclophilin A)
Assay type: biochemical
Settings: read-out: KRAS WT FRET data IC50
quantity.kind: IC50

Example results:
INSERT INTO assay_data (molecule, quantity_kind, observed_result) VALUES
  ('CCn1c(-c2cccnc2[C@H](C)OC)c2c3cc(ccc31)-c1cc(O)cc(c1)C[C@H](NC(=O)[C@H](C(C)C)N(C)C(=O)[C@@H]1C[C@@H]1C)C(=O)N1CCC[C@H](N1)C(=O)OCC(C)(C)C2 [Compound A223]', 'IC50', '10 to 100 nM'),
  ('CCn1c(-c2cccnc2[C@H](C)OC)c2c3cc(ccc31)-c1csc(n1)C[C@H](NC(=O)[C@H](C(C)C)N(C)C(=O)N1CCO[C@H](c3ccccc3)C1)C(=O)N1CCC[C@H](N1)C(=O)OCC(C)(C)C2 [Compound A582]', 'IC50', '100 to 1000 nM'),
  ('CCn1c(-c2cnccc2COC)c2c3cc(ccc31)-c1cc(O)cc(c1)C[C@H](NC(=O)[C@H](C(C)C)N(C)C(=O)[C@H]1CCN(C(=O)CO)C1)C(=O)N1CCC[C@H](N1)C(=O)OCC(C)(C)C2 [Compound A20]', 'IC50', '100 to 1000 nM');

Fill in: IC50 of CCn1c(-c2cccnc2[C@H](C)OC)c2c3cc(ccc31)-c1cc(O)cc(c1)C[C@H](NC(=O)[C@H](C(C)C)N(C)C(=O)[C@H]1C[C@H]1F)C(=O)N1CCC[C@H](N1)C(=O)OCC(C)(C)C2 [Compound A162] is ___
10 to 100 nM
